- measured-on: 5-hydroxytryptamine receptor 2A (Homo sapiens, UniProt P28223)
- Sequence (P28223 whole entry): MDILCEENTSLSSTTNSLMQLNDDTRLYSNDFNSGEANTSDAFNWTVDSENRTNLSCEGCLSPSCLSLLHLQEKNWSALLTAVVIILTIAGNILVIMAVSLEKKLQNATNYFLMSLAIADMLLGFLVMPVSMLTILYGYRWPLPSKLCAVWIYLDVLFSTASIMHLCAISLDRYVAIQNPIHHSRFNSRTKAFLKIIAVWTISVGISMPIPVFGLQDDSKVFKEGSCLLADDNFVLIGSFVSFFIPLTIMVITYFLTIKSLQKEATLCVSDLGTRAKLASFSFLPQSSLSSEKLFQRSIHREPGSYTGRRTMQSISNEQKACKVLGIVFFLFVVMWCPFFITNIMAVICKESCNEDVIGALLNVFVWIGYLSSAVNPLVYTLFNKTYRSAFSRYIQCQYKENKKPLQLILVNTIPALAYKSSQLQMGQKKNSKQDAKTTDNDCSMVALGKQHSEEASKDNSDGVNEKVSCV
- method-summary: Displacement of [3H]Ketanserin from 5-HT2A (unknown origin) receptor after 90 mins by microbeta scintillation counting analysis
I'd appreciate it if you marked entries yes (1) when Ki is lower than 1 µM and no (0) when it is not.

Exam item: State whether 1 µM exceeds Ki recorded for C[C@H]1SC(c2ccc(-c3ccccc3)cc2)=N[C@H]1Cc1c[nH]cn1 (relative stereo) .
Marked response: yes (1)

Exam item: Lab log: compare recorded Ki with 1 µM; is it strictly lower for COC(=O)[C@H](Cc1cnc[nH]1)NC(=O)[C@H]1N=C(c2ccccc2O)S[C@@H]1C ?
Marked response: yes (1)

Exam item: Would you kindly verify if Ki of C[C@@H]1SC(c2c[nH]c3ccccc23)=N[C@H]1CO (relative stereo) is strictly less than 1 µM?
Marked response: no (0)

Exam item: Is Ki of Oc1ccccc1C1=NC(Cc2c[nH]cn2)C(c2ccccc2)S1 (racemic) strictly below 1 µM?
Marked response: no (0)

Exam item: # TODO verify Ki < 1 µM strictly for this molecule: Oc1ccccc1C1=NC(Cc2c[nH]cn2)CS1 (racemic)
Marked response: no (0)

Exam item: Does C[C@@H]1SC(c2ccsc2)=N[C@H]1CO (relative stereo) have Ki strictly under 1 µM?
Marked response: no (0)

Exam item: Hi there! Is Ki for CCCCCCCCOc1ccc(C2=N[C@@H](CO)[C@H](C)S2)cc1 (relative stereo) below 1 µM, do you know?
Marked response: no (0)

Exam item: Given CCCCOc1ccc(C2=N[C@@H](CO)[C@H](C)S2)cc1 (relative stereo) , is recorded Ki strictly lower than 1 µM?
Marked response: no (0)

Next molecule, please.
Exam item: Here's an entry: C[C@@H]1SC(c2ccccc2O)=N[C@H]1Cc1c[nH]cn1 (racemic) . Is its Ki below 1 µM?
Marked response: no (0)

----------
Please go through the items and note down their Ki.
- measured-on: 5-hydroxytryptamine receptor 1E (Homo sapiens)
- Sequence (P28566 whole entry): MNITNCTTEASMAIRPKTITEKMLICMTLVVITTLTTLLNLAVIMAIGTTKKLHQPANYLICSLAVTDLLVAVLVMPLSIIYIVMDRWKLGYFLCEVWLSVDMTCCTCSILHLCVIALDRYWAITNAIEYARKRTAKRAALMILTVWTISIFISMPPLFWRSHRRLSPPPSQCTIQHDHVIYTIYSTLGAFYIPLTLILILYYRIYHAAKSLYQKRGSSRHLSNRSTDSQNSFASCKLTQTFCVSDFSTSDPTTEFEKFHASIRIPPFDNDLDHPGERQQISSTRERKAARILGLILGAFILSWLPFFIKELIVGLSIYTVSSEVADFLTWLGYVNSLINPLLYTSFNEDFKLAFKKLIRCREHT
- method-summary: Displacement of [3H]5-HT from human 5-HT1E receptor expressed in HEK cells after 90 mins by microbeta scintillation counting analysis
- Format: cell-based

Exam item: Please give the measured Ki for this compound: COC(=O)[C@H](Cc1cnc[nH]1)NC(=O)[C@H]1N=C(c2ccccc2O)S[C@@H]1C
Marked response: 1.4 µM

Would you be so kind as to report Ki for each listed record?
1. C[C@@H]1SC(c2ccsc2)=N[C@H]1CO (relative stereo)
2. CNc1ccccc1C1=N[C@@H](CO)[C@H](C)S1 (relative stereo)
3. CCCCCCCCOc1ccc(C2=N[C@@H](CO)[C@H](C)S2)cc1 (relative stereo)
4. C[C@@H]1SC(c2c[nH]c3ccccc23)=N[C@H]1CO (relative stereo)
5. C[C@@H]1SC(c2ccccc2)=N[C@H]1CO (relative stereo)

Marked response:
["> 10 µM", "> 10 µM", "> 10 µM", "> 10 µM", "> 10 µM"]

----------
- measured-on: 5-hydroxytryptamine receptor 2B (Homo sapiens)
- Sequence (P41595 whole entry): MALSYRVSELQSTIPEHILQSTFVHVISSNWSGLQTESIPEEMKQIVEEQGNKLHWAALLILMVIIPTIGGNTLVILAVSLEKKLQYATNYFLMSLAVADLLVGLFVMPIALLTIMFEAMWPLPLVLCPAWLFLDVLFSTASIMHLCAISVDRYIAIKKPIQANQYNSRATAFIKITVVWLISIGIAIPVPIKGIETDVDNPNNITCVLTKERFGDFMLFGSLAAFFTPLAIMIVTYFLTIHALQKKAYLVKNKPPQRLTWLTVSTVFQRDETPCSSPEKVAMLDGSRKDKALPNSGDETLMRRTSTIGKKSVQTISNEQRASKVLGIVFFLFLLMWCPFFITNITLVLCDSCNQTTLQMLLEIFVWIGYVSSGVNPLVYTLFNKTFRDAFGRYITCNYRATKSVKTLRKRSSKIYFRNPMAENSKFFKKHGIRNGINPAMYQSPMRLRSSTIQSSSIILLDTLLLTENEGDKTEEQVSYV
- method-summary: Antagonist activity at 5-HT2B receptor (unknown origin) by calcium release assay
measured-metric: log10(IC50) (log10 of the value in µM)
Units before log transform: µM; reported quantity: IC50; transform: log10.

Study these solved cases before continuing.
Exam item: GET /values?readout=log10(IC50)&item= COC(=O)[C@H](Cc1cnc[nH]1)NC(=O)[C@H]1N=C(c2ccccc2O)S[C@@H]1C
Marked response: 1.00

Exam item: Item C[C@@H]1SC(c2ccccc2)=N[C@H]1Cc1c[nH]cn1 (relative stereo) has what recorded log10(IC50)?
Marked response: 1.00

Exam item: Looking for the measured log10(IC50) of C[C@@H]1SC(c2ccccc2O)=N[C@@H]1CO [PULICATIN A] , can you help?
Marked response: 1.48

Exam item: Query: log10(IC50); subject: C[C@@H]1SC(c2ccccc2O)=N[C@H]1Cc1c[nH]cn1 (racemic)
Marked response: -0.10

Exam item: Name the recorded log10(IC50) for C[C@@H]1SC(c2ccccc2O)=N[C@H]1CO .
Marked response: 1.26

Further cases:
Exam item: Find the recorded log10(IC50) belonging to Oc1ccccc1C1=NC(Cc2c[nH]cn2)C(c2ccccc2)S1 (racemic) and report it.
Marked response: 0.58

Hello, the source for this data is ChEMBL document CHEMBL4190286, in case you need it.
